# Tested on: NRG-mice bearing LNCaP tumors
# Assay protocol: Biodistribution (and PET/SPECT imaging) in NRG-mice bearing LNCaP tumors
# Type: in vivo
# Run parameters: 3 h p.i., Avg
*1 amine or outer side, *2 acyl side, *3 side chain or, on linkers, in order; H or OH if unused. Where a SMILES comes first, the peptide text is derived from it. [ ]: non-standard residue; d: D form. The star is where a group is joined. ξ: configuration not given here. ξLys(Nα-CO-ξAad) = O=C(O)CCCC(NC(=O)NC(CCCCN*)C(=O)O)C(=O)O; Butanoyl(4-(4-NO2Ph)) = O=C(CCCc1ccc([N+](=O)[O-])cc1)*; DOTA = O=C(O)CN1CCN(CC(=O)O)CCN(CC(=O)*)CCN(CC(=O)O)CC1; ξAla(9-anthryl) = NC(Cc1c2ccccc2cc2ccccc12)C(=O)O; X1 = O=C(C1CCC(CN[*:1])CC1)[*:2]; ξK = NCCCCC(N)C(=O)O
Endpoint name: Biodistribution: Thyroid (% ID/g)
# number only, unit % ID/g dropped from output

# Compound, Endpoint name, Reported value
rows = [
    ("COc1ccc(CCCC(=O)NCC(=O)NC(CCCCNC(=O)CN2CCN(CC(=O)[O-])CCN(CC(=O)[O-])CCN(CC(=O)[O-])CC2)CC(=O)NCC2CCC(C(=O)NC(Cc3c4ccccc4cc4ccccc34)C(=O)NCCCCC(NC(=O)NC(CCCC(=O)O)C(=O)O)C(=O)O)CC2)cc1.[68Ga+3] (centres unmarked) [^68Ga-CCZ02015]", "Biodistribution: Thyroid", 2.09),
]

Next up:
So what's the measured Biodistribution: Thyroid for this one? O=C([O-])CN1CCN(CC(=O)[O-])CCN(CC(=O)NCCCCC(NC(=O)CNC(=O)CCCc2ccc([N+](=O)[O-])cc2)C(=O)NCC(=O)NCC2CCC(C(=O)NC(Cc3c4ccccc4cc4ccccc34)C(=O)NCCCCC(NC(=O)NC(CCCC(=O)O)C(=O)O)C(=O)O)CC2)CCN(CC(=O)[O-])CC1.[225Ac+3] (centres unmarked) [^225Ac-CCZ02017] ({Butanoyl(4-(4-NO2Ph))}-G[ξK](DOTA)G[X1][ξAla(9-anthryl)]-{ξLys(Nα-CO-ξAad)})
1.72

----------
# System: NRG-mice bearing LNCaP tumors
# Assay protocol: Biodistribution (and PET/SPECT imaging) in NRG-mice bearing LNCaP tumors
# Format: in vivo
# Run parameters: 3 h p.i., Avg
*1 amine or outer side, *2 acyl side, *3 side chain or, on linkers, in order; H or OH if unused. Where a SMILES comes first, the peptide text is derived from it. [ ]: non-standard residue; d: D form. The star is where a group is joined. ξ: configuration not given here. ξLys(Nα-CO-ξAad) = O=C(O)CCCC(NC(=O)NC(CCCCN*)C(=O)O)C(=O)O; Butanoyl(4-(4-NO2Ph)) = O=C(CCCc1ccc([N+](=O)[O-])cc1)*; DOTA = O=C(O)CN1CCN(CC(=O)O)CCN(CC(=O)*)CCN(CC(=O)O)CC1; ξAla(9-anthryl) = NC(Cc1c2ccccc2cc2ccccc12)C(=O)O; X2 = O=C(NC(CCCCN*)C(=O)O)NC(CC(F)C(=O)O)C(=O)O; X1 = O=C(C1CCC(CN[*:1])CC1)[*:2]; ξK = NCCCCC(N)C(=O)O
Endpoint name: Biodistribution: Salivary gland (% ID/g)
# number only, unit % ID/g dropped from output

Some molecules with known Biodistribution: Salivary gland results, for comparison:
# Molecule, Endpoint name, Reported value
records = [
    ("O=C([O-])CN1CCN(CC(=O)[O-])CCN(CC(=O)NCCCCC(NC(=O)CNC(=O)CCCc2ccc([N+](=O)[O-])cc2)C(=O)NCC(=O)NCC2CCC(C(=O)NC(Cc3c4ccccc4cc4ccccc34)C(=O)NCCCCC(NC(=O)NC(CC(F)C(=O)O)C(=O)O)C(=O)O)CC2)CCN(CC(=O)[O-])CC1.[68Ga+3] (stereo not drawn) [^68Ga-CCZ02025] ({Butanoyl(4-(4-NO2Ph))}-G[ξK](DOTA)G[X1][ξAla(9-anthryl)]-X2)", "Biodistribution: Salivary gland", 2.47),
    ("O=C([O-])CN1CCN(CC(=O)[O-])CCN(CC(=O)NCCCCC(NC(=O)CNC(=O)CCCc2ccc([N+](=O)[O-])cc2)C(=O)NCC(=O)NCC2CCC(C(=O)NC(Cc3c4ccccc4cc4ccccc34)C(=O)NCCCCC(NC(=O)NC(CCCC(=O)O)C(=O)O)C(=O)O)CC2)CCN(CC(=O)[O-])CC1.[225Ac+3] (stereo not drawn) [^225Ac-CCZ02017] ({Butanoyl(4-(4-NO2Ph))}-G[ξK](DOTA)G[X1][ξAla(9-anthryl)]-{ξLys(Nα-CO-ξAad)})", "Biodistribution: Salivary gland", 3.37),
]

Next up:
Lookup: Biodistribution: Salivary gland / NRG-mice bearing LNCaP tumors / O=C([O-])CN1CCN(CC(=O)[O-])CCN(CC(=O)NCCCCC(NC(=O)CNC(=O)CCCc2ccc([N+](=O)[O-])cc2)C(=O)NCC(=O)NCC2CCC(C(=O)NC(Cc3c4ccccc4cc4ccccc34)C(=O)NCCCCC(NC(=O)NC(CCCC(=O)O)C(=O)O)C(=O)O)CC2)CCN(CC(=O)[O-])CC1.[177Lu+3] (stereo not drawn) [^177Lu-CCZ02017] ({Butanoyl(4-(4-NO2Ph))}-G[ξK](DOTA)G[X1][ξAla(9-anthryl)]-{ξLys(Nα-CO-ξAad)})
2.43

----------
# Test system: NRG-mice bearing LNCaP tumors
# Assay protocol: Biodistribution (and PET/SPECT imaging) in NRG-mice bearing LNCaP tumors
# Assay type: in vivo
# Run parameters: 72 h p.i., Avg
*1 amine or outer side, *2 acyl side, *3 side chain or, on linkers, in order; H or OH if unused. Where a SMILES comes first, the peptide text is derived from it. [ ]: non-standard residue; d: D form. The star is where a group is joined. ξ: configuration not given here. DOTA = O=C(O)CN1CCN(CC(=O)O)CCN(CC(=O)*)CCN(CC(=O)O)CC1; Butanoyl(4-(4-MeO-phenyl)) = COc1ccc(CCCC(=O)*)cc1; ξAla(9-anthryl) = NC(Cc1c2ccccc2cc2ccccc12)C(=O)O; X2 = O=C(NC(CCCCN*)C(=O)O)NC(CC(F)C(=O)O)C(=O)O; X1 = O=C(C1CCC(CN[*:1])CC1)[*:2]; ξK = NCCCCC(N)C(=O)O
Endpoint name: Biodistribution: Intestine (% ID/g)
# number only, unit % ID/g dropped from output

So what's the measured Biodistribution: Intestine for this one? COc1ccc(CCCC(=O)NCC(=O)NC(CCCCNC(=O)CN2CCN(CC(=O)[O-])CCN(CC(=O)[O-])CCN(CC(=O)[O-])CC2)C(=O)NCC(=O)NCC2CCC(C(=O)NC(Cc3c4ccccc4cc4ccccc34)C(=O)NCCCCC(NC(=O)NC(CC(F)C(=O)O)C(=O)O)C(=O)O)CC2)cc1.[177Lu+3] (stereo not shown) [^177Lu-CCZ02008] ({Butanoyl(4-(4-MeO-phenyl))}-G[ξK](DOTA)G[X1][ξAla(9-anthryl)]-X2)
0.15

----------
# System: NRG-mice bearing LNCaP tumors
# Assay protocol: Biodistribution (and PET/SPECT imaging) in NRG-mice bearing LNCaP tumors
# Type: in vivo
# Run parameters: 24 h p.i., Avg
*1 amine or outer side, *2 acyl side, *3 side chain or, on linkers, in order; H or OH if unused. Where a SMILES comes first, the peptide text is derived from it. [ ]: non-standard residue; d: D form. The star is where a group is joined. ξ: configuration not given here. ξLys(Nα-CO-ξAad) = O=C(O)CCCC(NC(=O)NC(CCCCN*)C(=O)O)C(=O)O; Butanoyl(4-(4-NO2Ph)) = O=C(CCCc1ccc([N+](=O)[O-])cc1)*; DOTA = O=C(O)CN1CCN(CC(=O)O)CCN(CC(=O)*)CCN(CC(=O)O)CC1; ξAla(9-anthryl) = NC(Cc1c2ccccc2cc2ccccc12)C(=O)O; X1 = O=C(C1CCC(CN[*:1])CC1)[*:2]; ξK = NCCCCC(N)C(=O)O
Endpoint name: Biodistribution: Brain (% ID/g)
# number only, unit % ID/g dropped from output

So what's the measured Biodistribution: Brain for this one? O=C([O-])CN1CCN(CC(=O)[O-])CCN(CC(=O)NCCCCC(NC(=O)CNC(=O)CCCc2ccc([N+](=O)[O-])cc2)C(=O)NCC(=O)NCC2CCC(C(=O)NC(Cc3c4ccccc4cc4ccccc34)C(=O)NCCCCC(NC(=O)NC(CCCC(=O)O)C(=O)O)C(=O)O)CC2)CCN(CC(=O)[O-])CC1.[177Lu+3] (stereo not shown) [^177Lu-CCZ02017] ({Butanoyl(4-(4-NO2Ph))}-G[ξK](DOTA)G[X1][ξAla(9-anthryl)]-{ξLys(Nα-CO-ξAad)})
0.03
